test_details: qHTS for Inhibitors of Cell Surface uPA Generation: Wild-type Protective Antigen (WT-PrAg) Counterscreen for Cherry-picked Compounds
test_parameters: cells, WT protective antigen toxicity counterscreen; series mostly up to 115 µM
Results filed as inconclusive are left out. Calls of active or inactive are those of the source. Calls follow the shape of the full dose curve.
Labels: Y for active, N for inactive

compound	class_label
COc1ccc(CCNC(=O)Cn2c(=O)n(-c3cc(F)ccc3F)c(=O)c3sccc32)cc1OC	N
CC(=O)c1ccc(N=C2SCCCN2C(=O)C2CCCCC2)cc1	N
COc1ccc(NC(=O)c2cccnc2N2CCOCC2)cc1	N
COC(=O)c1ccccc1NC(=O)Nc1nnc(N2CCCCC2C)s1 (stereo unspecified)	Y
Cn1cc(SCC(=O)Nc2nccs2)c2ccccc21	N
CCC(=O)N(Cc1cc2ccc(C)cc2[nH]c1=O)c1ccccc1OC	N
Cc1ccc(S(=O)(=O)N2CCN(C(=O)c3n[nH]c(=O)c4ccccc34)CC2)cc1	N
CC(=O)c1ccc2c(c1)c1ccccc1n2CC(C)C	N
CCCCn1c(N)c(N(Cc2ccccc2OC)C(=O)COc2ccc(C)cc2)c(=O)[nH]c1=O	N
COc1ccc(NS(=O)(=O)c2cc(NS(=O)(=O)c3cc(C(=O)O)ccc3OC)ccc2C)cc1	N
COCCn1nnnc1C(C(C)C)N1CCCC(C)C1 (stereo unspecified)	N

###

test_details: qHTS for Inhibitors of Cell Surface uPA Generation: Wild-type Protective Antigen (WT-PrAg) Counterscreen for Cherry-picked Compounds; also: potency is read from the fitted curve at half-maximal effect
test_parameters: cells, WT protective antigen toxicity counterscreen; series mostly up to 115 µM
Records with an inconclusive call do not appear. The source made the active and inactive calls. The call rests on the fitted dose curve.

compound	Potency
COc1ccc(C(=O)NCC(=O)N/N=C/c2c(C)[nH]c3ccccc23)cc1	inactive
CCN(CC)C(=O)Cn1cc(/C=C(\C#N)C(=O)NC2CC2)c2ccccc21	inactive
S=C(Nc1ccccc1Cl)N1CCCC(c2ccccc2)=N1	16.5 µM (active)
O=C(NCC1CCCO1)c1c(O)c2cccc3c2n(c1=O)CCC3 (stereo unspecified)	inactive
COc1ccc(NC(=O)CCNS(=O)(=O)c2ccccc2F)cc1S(=O)(=O)N1CCOCC1	inactive
CC1(C)Oc2ccc3ccc(=O)oc3c2[C@@H](O)[C@H]1O	inactive

###

test_details: qHTS for Inhibitors of Cell Surface uPA Generation: Wild-type Protective Antigen (WT-PrAg) Counterscreen for Cherry-picked Compounds
test_parameters: cells, WT protective antigen toxicity counterscreen; series mostly up to 115 µM
Results filed as inconclusive are left out. Activity calls are given as the source filed them. The call rests on the fitted dose curve.
Possible outcomes: 1 = active, 0 = inactive

molecule	class_label
Cc1ccc2oc(C(=O)N(Cc3ccc(N(C)C)cc3)C3CCS(=O)(=O)C3)c(C)c2c1 (stereo not drawn)	0
Cn1cnc([N+](=O)[O-])c1Sc1ccc(Br)cc1	0
C[C@H](CO)N1C[C@H](C)[C@H](CN(C)S(=O)(=O)c2cn(C)cn2)Oc2ccc(NC(=O)Nc3ccc(C(F)(F)F)cc3)cc2CC1=O	0
CCCCCN(C(=O)CCC(=O)OCCOc1cccc(Cl)c1)c1c(N)n(CCCC)c(=O)[nH]c1=O	0
COc1ccc(CCNC(=O)CSc2nc(N)c3c(C)c(C)oc3n2)cc1OC	0
CC1(C)CC(=O)C=C(c2ccc3ccccc3c2)C1	0
COc1ccc(C(=O)CC2(C(=O)O)CCCCC2)cc1	0
COc1cccc(-n2c(SCC(=O)Nc3cc(C)on3)nc3c([nH]c4ccccc43)c2=O)c1	0
Cc1ccc(C(=O)NNC(=O)CNc2cccc(Cl)c2)cc1	0
Cc1cc(=O)[nH]c(=S)[nH]1	0
O=C(CN1CCN(Cc2ccc(Cl)cc2)C1=O)NCc1cccs1	0
OC(COc1ccc(Br)cc1)CN1CCN(c2ccccc2)CC1 (stereo not drawn)	0
CC(CCc1ccccc1)NC(=O)c1ccc(NC(=O)c2cccc(Br)c2)cc1 (stereo not drawn)	0
CC(=O)c1cccc(NC(=O)N2C3CCC2CC(O)(c2cccnc2)C3)c1 (stereo not drawn)	0
COc1ccccc1N1CCN(C(=O)CCC(=O)N2CCN(c3ccc(F)cc3)CC2)CC1	0
CC(NC(=O)NC1CCCCC1)C(c1cccs1)N1CCN(C)CC1 (stereo not drawn)	0
CCCCN(CC(=O)Nc1cccc(S(=O)(=O)N2CCCC2)c1)Cc1nc2ccccc2c(=O)[nH]1	0
Cc1oc2c(Cl)c(Cl)c(O)c(CN(C)C)c2c1C(=O)c1ccc(Cl)cc1	0
Cc1ccc(C(O)(COC(=O)C(C)C)COC(=O)C(C)C)c(O)c1	0
CCOC(=O)N1CCN(C(=O)c2ccc3c(c2)sc2nc(-c4ccc(OC)cc4)cn23)CC1	0
Cc1cccc(NC(=O)C2CCCN(S(=O)(=O)c3ccc4[nH]c(=O)ccc4c3)C2)c1 (stereo not drawn)	0
C=CS(=O)(=O)c1ccc(Oc2ccc(S(=O)(=O)C=C)cc2)cc1	1
O=C(O)C(Nc1nc(C(F)(F)F)nc2ccccc12)c1ccccc1 (stereo not drawn)	0
COc1ccc(C(=O)NCCCN2CCOCC2)cc1	0
C[C@H]1CN([C@@H](C)CO)C(=O)c2cc(NS(=O)(=O)c3ccc(Cl)cc3)ccc2O[C@@H]1CN(C)CC1CCCCC1	0
COc1cccc(CN(C)C(=O)c2cc(S(=O)(=O)N3CCCC3)ccc2C)c1OC	0
Cc1c(C(=O)N(Cc2ccccc2Cl)C2CCS(=O)(=O)C2)oc2ccccc12 (stereo not drawn)	0
CCN1CCCCC(=N/O)/C(=N/O)CCCC1	0

###

test_details: qHTS for Inhibitors of Cell Surface uPA Generation: Wild-type Protective Antigen (WT-PrAg) Counterscreen for Cherry-picked Compounds
test_parameters: cells, WT protective antigen toxicity counterscreen; series mostly up to 115 µM
Records with an inconclusive call do not appear. Activity calls are given as the source filed them. Calls follow the shape of the full dose curve.

molecule	outcome
Clc1ccc(C2=NN=C3COc4ccccc4N3C2)cc1	inactive
COc1cc(/C=N/NC(=O)c2ccncc2)ccc1O	inactive
CC(C)CNC(=O)COC(=O)CCC(=O)c1cccs1	inactive
COc1ccc2nc(C)cc(Nc3ccccc3O)c2c1	inactive
CN(/N=C/c1cc(Cl)cc(Cl)c1O)C(=S)NC(C)(C)C	inactive
CC(C)Cn1cnc2c(N)nc3ccccc3c21	inactive
Cc1cccc(NC(=O)c2cc3c(=O)n4ccccc4nc3s2)c1	inactive
CS(=O)(=O)Nc1cccc(C2=NN(S(=O)(=O)c3ccccc3)C(c3ccco3)C2)c1 (stereo unspecified)	inactive
CCOC(=O)C1=CC[C@@H](c2cc3ccc(OC)cc3n2C)N(S(=O)(=O)c2ccc(C)cc2)[C@H]1C(=O)OCC	inactive
CCSC1=NCCN1S(=O)(=O)c1ccc(Cl)cc1	inactive
CC(=O)Nc1c2c(nn1-c1cccc(C)c1)CSC2	inactive
COC(=O)/C(C#N)=C\c1c(OC)[nH]c2ccccc12	inactive
O=C(NCc1ccc2c(c1)OCO2)c1ccccn1	inactive
Cc1ccc(C(=O)NC(=S)Nc2ccc3[nH]c(=O)[nH]c3c2)c(C)c1	inactive
Cn1nc(C(C)(C)C)c([N+](=O)[O-])c1C(=O)N1CCOCC1	inactive
COc1ccc(/C(N)=N/OC(=O)Cc2ccccc2OC)cc1	inactive
COc1ccc(S(=O)(=O)N2CCN(Cc3ccccc3)CC2)c(C)c1	inactive
COc1cccc(C2CC(c3ccc(C)cc3)n3ncnc3N2)c1 (stereo unspecified)	inactive
Cc1ccnc(NC(=O)CCNS(=O)(=O)c2ccc(C)c(C)c2)c1	inactive
O=[N+]([O-])c1ccccc1C=NNC(=S)NN=Cc1ccccc1[N+](=O)[O-]	inactive
C/C=C(/C(=C/C)c1ccc(O)cc1)c1ccc(O)cc1	inactive
COc1ccc(/C=N/NC(=O)COc2ccc3ccccc3c2)c(C(=O)O)c1OC	inactive
COc1ccc(-c2nn(CCC#N)cc2C(=O)Nc2cccc([N+](=O)[O-])c2)cc1OC	inactive
COc1ccc(NC(=O)c2nn(C)c3c2CS(=O)(=O)c2ccccc2-3)cc1	inactive
Fc1ccc(N2CCN(c3nc(CN4CCOCC4)nc4scc(-c5ccccc5)c34)CC2)cc1	inactive
COc1cc(CN2CCNC(=O)C2CC(=O)NCCCC2CCCC2)cc(OC)c1 (stereo unspecified)	inactive
